Listed next: entries and their corresponding AC50.
Study System: Cannabinoid receptor 1 (Homo sapiens, UniProt P21554); also: assay procedure not described here
Sequence (P21554 whole entry): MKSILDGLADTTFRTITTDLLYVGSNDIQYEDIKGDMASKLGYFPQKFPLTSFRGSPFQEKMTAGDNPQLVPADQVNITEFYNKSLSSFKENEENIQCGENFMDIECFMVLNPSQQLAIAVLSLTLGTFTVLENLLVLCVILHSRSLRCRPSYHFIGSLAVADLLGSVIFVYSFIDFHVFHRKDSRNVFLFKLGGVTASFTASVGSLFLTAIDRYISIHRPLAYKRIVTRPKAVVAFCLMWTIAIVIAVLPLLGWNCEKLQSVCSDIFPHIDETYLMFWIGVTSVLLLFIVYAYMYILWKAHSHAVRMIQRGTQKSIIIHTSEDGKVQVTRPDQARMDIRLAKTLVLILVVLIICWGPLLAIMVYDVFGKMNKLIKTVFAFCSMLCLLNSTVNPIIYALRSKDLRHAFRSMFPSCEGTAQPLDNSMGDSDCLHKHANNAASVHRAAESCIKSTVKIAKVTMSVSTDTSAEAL
Format: functional, cell-based

- Cc1c(C)c2c(c(C)c1O)CCC(C)(COc1ccc(CC3SC(=O)NC3=O)cc1)O2 (stereo not drawn): > 30 µM
- CCOC(=O)Nc1ccc(NCc2ccc(F)cc2)nc1N: > 30 µM

// map CO[C@@H]1[C@@H](OC(N)=O)[C@@H](O)[C@H](Oc2ccc3c(O)c(NC(=O)c4ccc(O)c(CC=C(C)C)c4)c(=O)oc3c2C)OC1(C)C to recorded AC50 (system: Cannabinoid receptor 1 (Homo sapiens, UniProt P21554)); also: assay procedure not described here
> 30 µM

----------
AC50 data for Sodium-dependent noradrenaline transporter (Homo sapiens) follow.

For orientation, consider the following solved cases.
• COCC(=O)O[C@]1(CCN(C)CCCc2nc3ccccc3[nH]2)CCc2cc(F)ccc2[C@@H]1C(C)C [MIBEFRADIL] = 20.2 µM
• CC(C)(C)NCC(O)COc1ccccc1C#N (stereo not drawn) [BUNITROLOL] = > 30 µM
• COc1cc(C[C@@H]2NCCc3cc(O)c(O)cc32)cc(OC)c1OC [TRETOQUINOL] = > 30 µM
• CC(=O)Nc1ccc(/C=N/NC(N)=S)cc1 [AMITHIOZONE] = > 30 µM
• OC(CN1CCCCC1)c1cc(-c2ccccc2)on1 (stereo not drawn) [PERISOXAL] = 21.9 µM

Proceeding to the next compound to report its AC50.
Find the recorded AC50 belonging to NS(=O)(=O)c1cc2c(cc1Cl)NC(C(Cl)Cl)NS2(=O)=O (stereo not drawn) [TRICHLORMETHIAZIDE] and report it.
> 30 µM

----------
Study System: Alpha-1A adrenergic receptor (Homo sapiens, UniProt P35348); also: assay procedure not described here
Sequence (P35348 whole entry): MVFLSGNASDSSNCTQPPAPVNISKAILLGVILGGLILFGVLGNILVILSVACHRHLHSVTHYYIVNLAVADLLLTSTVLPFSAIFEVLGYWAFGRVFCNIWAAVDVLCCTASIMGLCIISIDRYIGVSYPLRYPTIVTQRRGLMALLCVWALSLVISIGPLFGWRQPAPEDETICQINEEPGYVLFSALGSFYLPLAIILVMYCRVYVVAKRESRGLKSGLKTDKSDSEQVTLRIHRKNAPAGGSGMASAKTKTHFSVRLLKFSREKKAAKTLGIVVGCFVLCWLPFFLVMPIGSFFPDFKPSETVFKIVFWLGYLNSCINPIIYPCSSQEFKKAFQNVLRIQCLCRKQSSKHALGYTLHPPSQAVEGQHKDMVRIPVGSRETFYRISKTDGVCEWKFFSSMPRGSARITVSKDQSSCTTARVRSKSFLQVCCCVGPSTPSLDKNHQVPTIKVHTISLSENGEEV
Format: functional, cell-based
Listed next: entries and their corresponding AC50.

For orientation, consider the following solved cases.
* O=NN(CCCl)C(=O)NCCCl [CARMUSTINE] | > 30 µM
* COCC(=O)O[C@]1(CCN(C)CCCc2nc3ccccc3[nH]2)CCc2cc(F)ccc2[C@@H]1C(C)C [MIBEFRADIL] | 25.9 µM

// map C[C@]12CC[C@@H]3c4ccc(OC(=O)N(CCCl)CCCl)cc4CC[C@H]3[C@@H]1CC[C@@H]2OP(=O)(O)O [ESTRAMUSTINE PHOSPHATE] to recorded AC50 (system: Alpha-1A adrenergic receptor (Homo sapiens, UniProt P35348)); also: assay procedure not described here
> 30 µM

Now the compound CC(C)=CCC/C(C)=C/CC/C(C)=C/CC/C(C)=C/CC1=C(C)C(=O)c2ccccc2C1=O [MENATETRENONE]
> 30 µM

----------
Study System: 5-hydroxytryptamine receptor 2C (Homo sapiens); also: assay procedure not described here
Sequence (P28335 whole entry): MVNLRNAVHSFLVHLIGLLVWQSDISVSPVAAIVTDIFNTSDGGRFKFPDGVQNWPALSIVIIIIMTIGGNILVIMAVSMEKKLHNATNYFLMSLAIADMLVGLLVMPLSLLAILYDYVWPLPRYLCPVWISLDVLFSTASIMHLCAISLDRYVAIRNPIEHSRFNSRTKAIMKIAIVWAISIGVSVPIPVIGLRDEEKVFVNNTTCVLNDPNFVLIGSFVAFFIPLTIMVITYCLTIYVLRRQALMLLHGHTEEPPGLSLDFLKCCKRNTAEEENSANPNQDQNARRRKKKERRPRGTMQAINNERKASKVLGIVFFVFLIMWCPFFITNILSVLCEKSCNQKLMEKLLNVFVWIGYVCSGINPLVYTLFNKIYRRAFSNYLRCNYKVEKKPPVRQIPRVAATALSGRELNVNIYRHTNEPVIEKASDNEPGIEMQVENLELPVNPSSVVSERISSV
Value Kind: AC50

For orientation, consider the following solved cases.
* Cn1cnc2c(F)c(Nc3ccc(Br)cc3F)c(C(=O)NOCCO)cc21 | > 30 µM
* C[C@H](CCC(=O)O)[C@H]1CC[C@H]2[C@@H]3[C@H](O)C[C@@H]4C[C@H](O)CC[C@]4(C)[C@H]3CC[C@]12C | > 30 µM
* CN(Cc1ccc(C(C)(C)C)cc1)Cc1cccc2ccccc12 | > 30 µM
* COc1ccc(-n2nc(C(N)=O)c3c2C(=O)N(c2ccc(N4CCCCC4=O)cc2)CC3)cc1 | > 30 µM
* CO[C@@H]1[C@@H](OC(N)=O)[C@@H](O)[C@H](Oc2ccc3c(O)c(NC(=O)c4ccc(O)c(CC=C(C)C)c4)c(=O)oc3c2C)OC1(C)C | > 30 µM
* NCCCNCCSP(=O)(O)O | > 30 µM
* Nc1ccc(S(=O)(=O)Nc2ncccn2)cc1 | > 30 µM
* OCCOCCN1CCN(C(c2ccccc2)c2ccc(Cl)cc2)CC1 (centres undefined) [HYDROXYZINE] | > 30 µM

Find the recorded AC50 belonging to COc1ccc2c3c1O[C@H]1C(=O)CC[C@H]4[C@@H](C2)N(C)CC[C@]314 [HYDROCODONE] and report it.
> 30 µM

Now the molecule COc1cc(N)cn[n+]1-c1ccccc1 [AMEZINIUM METILSULFATE]
> 30 µM

Now the molecule COc1nc(C)nc(Cl)c1N=C1NCCN1
> 30 µM

Now the molecule CC(C)(Oc1ccc(Cl)cc1)C(=O)OCCOC(=O)c1cccnc1 [ETOFIBRATE]
> 30 µM

Now the molecule CCOc1ccccc1OCCN[C@H](C)Cc1ccc(OC)c(S(N)(=O)=O)c1
> 30 µM

Now the molecule Cc1ccc(O)c([C@H](CCN(C(C)C)C(C)C)c2ccccc2)c1
> 30 µM

Now the molecule CCc1ccc(C(=O)C(C)CN2CCCCC2)cc1 (centres undefined)
> 30 µM
